PROTOCOL_DESCRIPTION: Comparative solubility profile of crystalline forms in diluents
TEST_PARAMETERS: diluent: Solvent DMSO
READOUT: Solubility (mg/mL)
Could you give me the number in mg/mL? Just the number is fine.

Here's what some known entries look like.
compound="CCOC(=O)Nc1ccc(NCc2ccc(F)cc2)cc1N [Form-II]" number=700
compound="CCOC(=O)Nc1ccc(NCc2ccc(F)cc2)cc1N [Modification-A]" number=800
compound="CCOC(=O)Nc1ccc(NCc2ccc(F)cc2)cc1N [Form-I]" number=700

Below: the item to evaluate.
The recorded Solubility for CCOC(=O)Nc1ccc(NCc2ccc(F)cc2)cc1N [Modification-B] is 700

* * *

PROTOCOL_DESCRIPTION: Comparative solubility profile of crystalline forms in diluents
TEST_PARAMETERS: acetone, organic solvent or mixture, Solubility, diluent: Solvent Acetone
READOUT: Solubility
State the result as a value with its unit after it.

The recorded Solubility for CCOC(=O)Nc1ccc(NCc2ccc(F)cc2)cc1N is 310 mg/mL

* * *

PROTOCOL_DESCRIPTION: Comparative solubility profile of crystalline forms in diluents
TEST_PARAMETERS: alcohol (96%), organic solvent or mixture, Solubility, diluent: Solvent Alcohol (96%)
READOUT: Solubility (mg/mL)
Could you give me the number in mg/mL? Just the number is fine.

The recorded Solubility for CCOC(=O)Nc1ccc(NCc2ccc(F)cc2)cc1N is 16

* * *

// reported Solubility per item
PROTOCOL_DESCRIPTION: Comparative solubility profile of crystalline forms in diluents
TEST_PARAMETERS: diluent: Solvent Methylene chloride
State the result as a value with its unit after it.

Here's what some known entries look like.
molecule="CCOC(=O)Nc1ccc(NCc2ccc(F)cc2)cc1N [Form-II]" result="70 mg/mL"
molecule="CCOC(=O)Nc1ccc(NCc2ccc(F)cc2)cc1N [Modification-A]" result="50 mg/mL"
molecule="CCOC(=O)Nc1ccc(NCc2ccc(F)cc2)cc1N [Form-I]" result="40 mg/mL"

The recorded Solubility for CCOC(=O)Nc1ccc(NCc2ccc(F)cc2)cc1N [Modification-B] is 80 mg/mL

* * *

PROTOCOL_DESCRIPTION: Comparative solubility profile of crystalline forms in diluents
TEST_PARAMETERS: diluent: Solvent Alcohol (96%)
// reported Solubility per item
Could you give me the number in mg/mL? Just the number is fine.

compound="CCOC(=O)Nc1ccc(NCc2ccc(F)cc2)cc1N [Form-II]" number=24
compound="CCOC(=O)Nc1ccc(NCc2ccc(F)cc2)cc1N [Form-I]" number=25
compound="CCOC(=O)Nc1ccc(NCc2ccc(F)cc2)cc1N [Modification-A]" number=23

Below: the item to evaluate.
The recorded Solubility for CCOC(=O)Nc1ccc(NCc2ccc(F)cc2)cc1N [Modification-B] is 22

* * *

PROTOCOL_DESCRIPTION: Comparative solubility profile of crystalline forms in diluents
TEST_PARAMETERS: pH buffer, pH 4.5, aqueous buffer, Solubility, diluent: pH Buffer 4.5 pH
READOUT: Solubility

The recorded Solubility for CCOC(=O)Nc1ccc(NCc2ccc(F)cc2)cc1N [Modification-C] is < 100 µg/mL

* * *

PROTOCOL_DESCRIPTION: Comparative solubility profile of crystalline forms in diluents
TEST_PARAMETERS: diluent: Solvent Acetone
READOUT: Solubility (mg/mL)
Could you give me the number in mg/mL? Just the number is fine.

Here's what some known entries look like.
compound="CCOC(=O)Nc1ccc(NCc2ccc(F)cc2)cc1N [Form-II]" number=250
compound="CCOC(=O)Nc1ccc(NCc2ccc(F)cc2)cc1N [Form-I]" number=290
compound="CCOC(=O)Nc1ccc(NCc2ccc(F)cc2)cc1N [Modification-A]" number=280

Below: the item to evaluate.
The recorded Solubility for CCOC(=O)Nc1ccc(NCc2ccc(F)cc2)cc1N [Modification-B] is 280

* * *

PROTOCOL_DESCRIPTION: Comparative solubility profile of crystalline forms in diluents
TEST_PARAMETERS: pH buffer, pH 1.2, simulated gastric fluid, Solubility, diluent: pH Buffer 1.2 pH
READOUT: Solubility (mg/mL)
Could you give me the number in mg/mL? Just the number is fine.

The recorded Solubility for CCOC(=O)Nc1ccc(NCc2ccc(F)cc2)cc1N [Modification-C] is 11

* * *

PROTOCOL_DESCRIPTION: Comparative solubility profile of crystalline forms in diluents
TEST_PARAMETERS: DMSO, organic solvent or mixture, Solubility, diluent: Solvent DMSO
READOUT: Solubility (mg/mL)
Could you give me the number in mg/mL? Just the number is fine.

The recorded Solubility for CCOC(=O)Nc1ccc(NCc2ccc(F)cc2)cc1N is 700

* * *

PROTOCOL_DESCRIPTION: Comparative solubility profile of crystalline forms in diluents
TEST_PARAMETERS: water, Solubility, diluent: Water
READOUT: Solubility

The recorded Solubility for CCOC(=O)Nc1ccc(NCc2ccc(F)cc2)cc1N is < 100 µg/mL

* * *

PROTOCOL_DESCRIPTION: Comparative solubility profile of crystalline forms in diluents
TEST_PARAMETERS: diluent: pH Buffer 1.2 pH
READOUT: Solubility

Here's what some known entries look like.
compound="CCOC(=O)Nc1ccc(NCc2ccc(F)cc2)cc1N [Modification-A]" result="13 mg/mL"
compound="CCOC(=O)Nc1ccc(NCc2ccc(F)cc2)cc1N [Form-I]" result="10 mg/mL"
compound="CCOC(=O)Nc1ccc(NCc2ccc(F)cc2)cc1N [Form-II]" result="10 mg/mL"

Below: the item to evaluate.
The recorded Solubility for CCOC(=O)Nc1ccc(NCc2ccc(F)cc2)cc1N [Modification-B] is 10 mg/mL
